Experiment: NCI Yeast Anticancer Drug Screen. Data for the rad50 strain (AID 155);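 further: 0% = growth of vehicle-only cultures of the same strain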
Settings: S. cerevisiae rad50 strain growth inhibition; at 3.7 µM
About 79,000 compounds went through this panel and 15% of them were active in at least one assay; those are over-represented in the sample as a whole. Calls of active or inactive are those of the source. No stated cut-off is given here; in the data, active means growth inhibition above about 70%; inactive means the rest.
Write down the outcome that applies. Available outcomes: active, inactive

Reference set (5 entries):
molecule | classLabel
CCCN(CCC)c1c([N+](=O)[O-])cc(S(N)(=O)=O)cc1[N+](=O)[O-] | inactive
C/C(=N\N=C(N)N)C(CN1CCOCC1)C(c1ccccc1)c1c(O)c2ccccc2oc1=O (centres undefined) | inactive
COC(=O)C(F)C(Br)C(=O)OC (centres undefined) | inactive
O=[N+]([O-])O.[NH-]C1CCCCC1[NH-].[NH-]C1CCCCC1[NH-].[NH-]C1CCCCC1[NH-].[OH-].[OH-].[OH-].[Pt+4].[Pt+4].[Pt+4] (centres undefined) | inactive
CC1CCCN(CCc2ccccc2)CC1 (centres undefined) | inactive

Q: Which result was noted for this molecule in the test: [O-][n+]1c2cccc(O)c2[n+]([O-])c2cccc(O)c21
Ans: inactive

Q: Which result was noted for this molecule in the test: O=C(c1ccccc1)C1C(c2ccccc2[N+](=O)[O-])N1C1CCCCC1 (centres undefined)
Ans: inactive

Q: Which result was noted for this molecule in the test: CCOP(=O)(CC(C)P(=O)(OCC)OCC)OCC.C[CH2][Sn]([Cl])([Cl])[CH2]C (centres undefined)
Ans: inactive

Q: Which result was noted for this molecule in the test: CC1CN1C1=C(Cl)C(=O)C(N2CC2C)=C(Cl)C1=O (centres undefined)
Ans: inactive

Q: Which result was noted for this molecule in the test: Nc1nc(-c2ccccc2)c(-c2ccccc2)[se]1
Ans: inactive

Q: Which result was noted for this molecule in the test: O=C(Nc1cc(Cl)ccc1Cl)C(Cl)(Cl)Cl
Ans: inactive

Q: Which result was noted for this molecule in the test: NCCc1ccc(OCc2ccccc2)c(OCc2ccccc2)c1
Ans: inactive

Q: Which result was noted for this molecule in the test: CNC(=O)OCC1C2=C(C(=O)C(C)=C(N)C2=O)N2CC3C(N3C)C12OC (centres undefined)
Ans: inactive

Q: Which result was noted for this molecule in the test: COc1cccc2c1C(=O)c1c(O)c3c(c(O)c1C2=O)C[C@@](O)(C(C)=O)C[C@@H]3OC1CC(N)C(OC2CC(O)C(O)C(C)O2)C(C)O1 (some centres undefined)
Ans: inactive

Q: Which result was noted for this molecule in the test: O=S(=O)(O)c1ccc(Cl)cc1.[Cd]
Ans: inactive

Q: Which result was noted for this molecule in the test: CCC1(OC(=O)CN)C(=O)OCc2c1cc1n(c2=O)Cc2cc3ccccc3nc2-1 (centres undefined)
Ans: active

Q: Which result was noted for this molecule in the test: CC1=C(O)C(=O)C=C2C1=CC=C1[C@@]2(C)CCC2(C)[C@@H]3C[C@@H](C)C(=O)C[C@]3(C)CC[C@]12C (some centres undefined)
Ans: inactive

Q: Which result was noted for this molecule in the test: CC(Cc1ccccc1)N(C)Cc1nc(C2CCC([N+](=O)[O-])O2)no1 (centres undefined)
Ans: inactive

Q: Which result was noted for this molecule in the test: CNC(=O)ON(C(C)=O)C(=O)NC
Ans: inactive

---

I'd appreciate it if you could supply growth inhibition values for the items below.
Test: NCI Yeast Anticancer Drug Screen. Data for the mlh1 rad18 strain (AID 175)
Details: S. cerevisiae mlh1 rad18 strain growth inhibition; at 50.0 µM; stronger effect = higher value
This is part of a sample that, as a whole, favours compounds with a hit. Of some 79,000 tested, about 15% had one in any assay.
Answers are plain numbers, in %.

Field: example entries. Status: answers known.
molecule | growth inhibition (%)
Cc1ccc2c(c1N)C(=O)c1ccccc1C2=O | 71.8
Cc1cn(CC2C=CC(CS[As](C)C)O2)c(=O)[nH]c1=O (stereo unspecified) | 99.1
CC1CN1C1=C(F)C(=O)C(N2CC2C)=C(F)C1=O (stereo unspecified) | 91.5

Give growth inhibition for each of the items listed below.
1. Cc1cc(-c2ccccc2)cc(C)[n+]1[O-]
2. CC1CC(C)CC(C)C(O)/C(C#N)=C/C=C/CC(C2CCCC2C(=O)O)OC(=O)CC(O)C(C)C1 (stereo unspecified)
3. C/C(=N\NS(=O)(=O)c1ccc(C)cc1)C(CN1CCOCC1)C(c1ccccc1)c1c(O)c2ccccc2oc1=O (stereo unspecified)
4. COc1cc(C2c3cc4c(cc3[C@@H](Nc3ccc(F)cc3)C3COC(=O)[C@H]23)OCO4)cc(OC)c1O (stereo partly specified)
5. CCOP(=O)(CC(C)P(=O)(OCC)OCC)OCC.C[CH2][Sn]([Cl])([Cl])[CH2]C (stereo unspecified)
6. N#C[S-].[Nd+3].c1cnc2c(c1)ccc1cccnc12.c1cnc2c(c1)ccc1cccnc12.c1cnc2c(c1)ccc1cccnc12
7. Cc1ccc(C(Cc2ccc(N3C(N)=NC(N)=NC3(C)C)cc2)C(=O)Nc2ccc(S(=O)(=O)F)cc2)cc1 (stereo unspecified)

Ans:
1. 5.4
2. 91.6
3. 87.6
4. 88.1
5. 62.7
6. 92.8
7. 99.5

Give growth inhibition for each of the items listed below.
1. C[N-]c1nnnn1C.[Au+].c1ccc([PH+](c2ccccc2)c2ccccc2)cc1
2. C[C@]12CCc3nonc3C1CC[C@@H]1C2CC[C@]2(C)C(=O)CCC12 (stereo partly specified)
3. O=C(CCl)Nc1cccc(Cl)c1
4. O=S(=O)([O-])[O-].[OH3+].[OH3+].[OH3+].[Ru+2].c1ccccc1
5. CCOP(=O)(Cc1cccc2ccccc12)OCC
6. CC(=O)OCC1OC(OC(C)C)[CH]([Hg][S]Cc2ccccc2)C(OC(C)=O)C1OC(C)=O (stereo unspecified)
7. CC1=C(CO)C2=C(C)C3(CC3)[C@@](C)(O)C(=O)C2=C1
8. CCC(C)c1cc([N+](=O)[O-])cc([N+](=O)[O-])c1O (stereo unspecified)

Ans:
1: 97; 2: 56.9; 3: 95; 4: 87.5; 5: -3.35; 6: 46.1; 7: 0.3; 8: 85.5

Give growth inhibition for each of the items listed below.
1. [Br][Sn]([CH]1CCCCC1)([CH]1CCCCC1)[CH]1CCCCC1
2. NC(N)=N/N=C1\C(=O)N(c2ccc(Cl)cc2)C(=O)C1C(=O)Nc1ccc(Cl)cc1 (stereo unspecified)
3. CC1CCC2(OC1)OC1CC3C4CC=C5CC(OC6OC(CO)C(OC7OC(C)C(OC8OC(C)C(O)C(O)C8O)C(O)C7O)C(O)C6OC6OC(C)C(O)C(O)C6O)CCC5(C)C4CCC3(C)C1C2C (stereo unspecified)
4. [Br][Cd][Br].c1ccc([PH+](c2ccccc2)c2ccccc2)cc1.c1ccc([PH+](c2ccccc2)c2ccccc2)cc1
5. CC[C@H](C)c1occ2c(O)c(C(=O)O)c(=O)cc-2c1C

Ans:
1: 98.8; 2: 83.1; 3: 86.5; 4: 94.7; 5: 81.2

Give growth inhibition for each of the items listed below.
1. CCOC(=O)C1C2OC(=O)C(C(=O)C2CN(CCCl)CCCl)C1C1CC=C(CC2=CCC(C3C4C(=O)OC(C(CN(CCCl)CCCl)C4=O)C3C(=O)OCC)CC2)CC1 (stereo unspecified)
2. CCCCN1C(=O)C2C(C1=O)C1(Cl)C(Cl)=C(Cl)C2(Cl)C1(Cl)Cl (stereo unspecified)
3. CNC(=O)N1CN(c2ccccc2)C2(CCN(CCCC(=O)c3ccc(F)cc3)CC2)C1=O

Ans:
[65.3, 76.7, 68.3]

---

Experiment: NCI Yeast Anticancer Drug Screen. Data for the rad50 strain (AID 155);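 further: 0% = growth of vehicle-only cultures of the same strain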
Details: S. cerevisiae rad50 strain growth inhibition; at 50.0 µM; stronger effect = higher value
This is part of a sample that, as a whole, favours compounds with a hit. Of some 79,000 tested, about 15% had one in any assay.
I'd appreciate it if you could supply growth inhibition values for the items below.
Answers are plain numbers, in %.

compound | growth inhibition [%]
CCC[CH2][Sn]([CH2]CCC)([S]C1=NCCS1)[S]C1=NCCS1 | 90.7
CCC[CH2][Sn]1([CH2]CCC)[O]CC(CN(C)Cc2ccccc2)[O]1 (stereo unspecified) | 88.7
ClC1=C(Cl)C(Cl)(Cl)SS1 | 88.7

Give growth inhibition for each of the items listed below.
1. Oc1ccc(Cl)cc1Cc1ccccc1
2. CN(CCC(N)CC(=O)NC1C=CC(n2ccc(N)nc2=O)OC1C(=O)O)C(=N)N (stereo unspecified)
3. CC(=O)[O][Hg][c]1ccccc1N

Ans:
[92, 91.8, 91.6]

---

Assay: NCI Yeast Anticancer Drug Screen. Data for the wt2 strain (AID 169);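 further: 0% = growth of vehicle-treated yeast cultures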
Conditions: S. cerevisiae wt2 strain growth inhibition; at 11.0 µM; stronger effect = higher value
Description: Growth inhibition of yeast strains with defined genetic alterations is measured as a screen for potential anti-cancer activity. Selected strains with alterations in DNA damage repair or cell cycle control were exposed to compounds and growth inhibition was measured relative to vehicle treated controls. The strain used in this assay is wt2
About 79,000 compounds went through this panel and 15% of them were active in at least one assay; those are over-represented in the sample as a whole.
I'd appreciate it if you could supply growth inhibition values for the items below.
Numbers only, in %.

Field: example entries. Status: answers known.
molecule | recordedNumber
COC(=O)C(F)C(Br)C(=O)OC (configuration not stated) | 98
CN(N=O)C(=O)NNC(=O)N(C)N=O | 1
c1ccc2cc3n[se]nc3cc2c1 | 8
Cc1c(N)nc([C@H](CC(N)=O)NC[C@H](N)C(N)=O)nc1C(=O)N[C@H](C(=O)N[C@H](C)[C@@H](O)[C@H](C)C(=O)N[C@H](C(=O)NCCc1nc(-c2nc(C(=O)NCCC[S+](C)C)cs2)cs1)[C@@H](C)O)C(OC1OC(CO)C(O)C(O)C1OC1OC(CO)C(O)C(OC(N)=O)C1O)c1cnc[nH]1 (some centres not stated) | 21
CC1=C(O)C(=O)C=C2C1=CC=C1[C@@]2(C)CCC2(C)[C@@H]3C[C@@H](C)C(=O)C[C@]3(C)CC[C@]12C (some centres not stated) | 93
COc1ccc([N+]2=NC(c3ccc([N+](=O)[O-])cc3)=NN(c3ccccc3)C2)cc1 | -2

Lab note: next molecule to report on.
Q: Consider the molecule shown here: CSc1ccccc1[As](C)C What is its recorded growth inhibition?
Ans: 85
